# Tested on: P. falciparum 3D7 trophozoites
# Assay Protocol: Metabolomic fingerprint profiling LC-MS
# Assay type: cell-based, Plasmodium falciparum
# Details: metabolite ribose-phosphate, S2 Table Metabolomics
Endpoint: ribose-phosphate

CCOc1cc2c(cc1OCC)C(c1cc(OC)c(O)cc1Cl)NCC2 (centres unmarked) [MMV008956]: 0.1544
COc1ccc(C=C2SC(=N)N(c3ccccc3OC)C2=O)cc1 [MMV666691]: 0.1031
CCn1c(CN2CCN(Cc3ccccc3)CC2)nc2cc(NC(=O)c3cccs3)ccc21 [MMV020439]: -0.1311
COc1cccc(NC(=O)[C@H](C(C)C)n2c(=O)[nH]c3ccccc3c2=O)c1 [MMV665878]: -0.6091
CCOC(=O)c1ccc2nc(-c3ccccc3)cc(O)c2c1 [MMV006457]: 0.3187

----------
Quick reference: glucose-1/6-phosphate of the listed items.
# System: P. falciparum 3D7 trophozoites
# Assay Protocol: Metabolomic fingerprint profiling LC-MS
# Assay type: cell-based, Plasmodium falciparum
# Details: metabolite glucose-1/6-phosphate; S2 Table Metabolomics, change in metabolite level after compound treatment
Endpoint: glucose-1/6-phosphate

COc1ccc(NC(=O)C2c3ccccc3C(=O)N(CC(C)C)C2c2cccs2)cc1Cl (centres unmarked) [MMV000642]: -1.542
OC(CNC1CCCCC1)Cn1c2ccccc2c2ccccc21 (centres unmarked) [MMV009063]: 1.039
CN1CCN(c2ccc(Nc3c4ccccc4nc4ccccc34)cc2)CC1 [MMV006172]: 0.09231
CN(C)c1ccc(C(O)(c2ccc(N(C)C)cc2)c2ccc(N(C)C)cc2)cc1 [MMV665941]: -0.5386
CN(C)CCCNc1c2ccccc2nc2ccccc12 [MMV000448]: -0.4595

----------
# Tested on: P. falciparum 3D7 trophozoites
# Assay Protocol: Metabolomic fingerprint profiling LC-MS
# Format: cell-based, Plasmodium falciparum
# Details: metabolite UDP; S2 Table Metabolomics, change in metabolite level after compound treatment
Examples of compounds with documented UDP follow.
Endpoint: UDP

COc1ccccc1N=C1C(=O)c2ccccc2C(O)=C1N1CCCCC1 [MMV085203]: 0.1215
COc1ccc(-n2ccnc2SCC(=O)Nc2cc(C)ccc2C)c(OC)c1 [MMV019258]: -2.466
CCC(c1ccccc1)c1nn2c(-c3cccs3)nnc2s1 (centres unmarked) [MMV665876]: -1.799
CCCc1cc(O)c2c3c(c(=O)oc2c1)CN(C)CC3 [MMV665841]: -0.165
COc1cc(OC)c(N(C)C(=O)c2cc3c(s2)-c2ccccc2S(=O)(=O)C3)cc1Cl [MMV006427]: 0.3063
CCOC(=O)c1cnc2ccc(CC)cc2c1O [MMV007116]: -1.173
COc1ccc(NC(=O)C2c3ccccc3C(=O)N(CC(C)C)C2c2cccs2)cc1 (centres unmarked) [MMV000662]: -1.277
C[n+]1c2ccccc2nc2ccc(NCCO)cc21 [MMV396693]: -0.3369

----------
Documented myo-inositol across a set of compounds
# System: P. falciparum 3D7 trophozoites
# Assay Protocol: Metabolomic fingerprint profiling LC-MS
# Type: cell-based, Plasmodium falciparum
# Details: metabolite level change after treatment
Endpoint: myo-inositol

CCC(c1ccccc1)c1nn2c(-c3cccs3)nnc2s1 (centres unmarked) [MMV665876]: 0.267
CCN(CC)CCNc1ncnc2c1[nH]c1ccc(Cl)cc12 [MMV396703]: -0.001865
CC(C)(C)c1ccc(O)c(CNC2CCCCC2)c1 [MMV665785]: 0.3826
COc1ccc2c(=O)cc(C(Cl)(Cl)Cl)oc2c1 [MMV665820]: -0.0001746
COc1ccc(C(=O)Nc2nonc2-c2ccc(OC)c(OC)c2)cc1Cl [MMV011567]: -1.672

----------
# Test system: P. falciparum 3D7, HB3, Dd2, W2, K1, FCR3
# Assay Protocol: Asexual EC50 image assay, six strains, Ayong
# Format: cell-based
# Details: Plasmodium falciparum; read-out: P. falciparum 3D7 asexual blood stage EC50 (Image) Ayong
Endpoint: EC50 (nM)

C[C@@H]1CC[C@H]2[C@@H](C)C(=O)O[C@@H]3O[C@@]4(C)CC[C@@H]1[C@]32OO4 [Artemisinin, reference compound]: 11.7

----------
# Tested on: P. falciparum 3D7 trophozoites
# Assay Protocol: Metabolomic fingerprint profiling LC-MS
# Type: cell-based, Plasmodium falciparum
# Details: metabolite level change after treatment
Endpoint: glutathione disulfide

CCn1c(CN2CCN(Cc3ccccc3)CC2)nc2cc(NC(=O)c3cccs3)ccc21: -0.0242
CN(C)CCCNc1c2ccccc2nc2ccccc12: -0.02692
Cc1cc(C=C2SC(=Nc3ccccc3)N(C3CCCC3)C2=O)c(C)n1-c1ccc(Cl)cc1: -0.05112
CCN(CC)CCNc1ncnc2c1[nH]c1ccc(Cl)cc12: -0.04771

----------
# System: primary human hepatocytes
# Assay Protocol: MPCC hepatotoxicity (albumin, urea, morphology)
# Assay type: cell-based
# Details: 10µM
In plain terms, low Human hepatocyte Urea synthesis, 1.0 normal, meaning strictly below 0.7, gives Condition met, and everything else gives Condition not met.

CCN(CC)c1cc(C)c2cc(NC(=O)c3cccc(OC)c3)ccc2n1 [MMV000498]: Condition met
COc1ccc(C(=O)Nc2ccc3nc(N4CCCCC4)cc(C)c3c2)cc1OC [MMV019758]: Condition met
CCN1CCN(c2cc(C)c3cc(NC(=O)c4ccc(OC)c(OC)c4)ccc3n2)CC1 [MMV019074]: Condition met
CCOC(=O)c1cnc2ccc(OC)cc2c1NCc1ccccc1 [MMV665813]: Condition not met
COc1cc2cc(C(=O)Nc3ccccc3)c(N)nc2cc1OC [MMV006767]: Condition not met

----------
# Test system: P. falciparum 3D7 trophozoites
# Assay Protocol: Metabolomic fingerprint profiling LC-MS
# Format: cell-based, Plasmodium falciparum
# Details: metabolite UDP-N-acetyl-glucosamine, S2 Table Metabolomics
Endpoint: UDP-N-acetyl-glucosamine

CCN1CCN(Cc2ccc(NC(=O)c3cc4ccc5cccnc5c4[nH]3)cc2)CC1: -0.0477
COc1ccc(C2=C(c3ccc(OC)cc3)C3(c4ccccc4)C(=O)C2(c2ccccc2)C2C(=O)N(c4ccc(C)cc4)C(=O)C23)cc1 (centres unmarked): 0.01073
CCn1c(CN2CCN(Cc3ccccc3)CC2)nc2cc(NC(=O)c3cccs3)ccc21: -0.297
c1ccc(Cn2c(N=Nc3c(Nc4ccccc4)ccc4ccccc34)nc3ccccc32)cc1: 0.05509
COc1ccccc1CNC(=O)CCn1c(=O)[nH]c2ccccc2c1=O: 0.2144
c1ccc2cc3c(Nc4ccc(N5CCOCC5)cc4)ccnc3cc2c1: 0.008052
Cc1cccc(Nc2nc(N)c3ccccc3n2)c1: -0.09963
COc1ccc(C=C2SC(=N)N(c3ccccc3OC)C2=O)cc1: 0.2054

----------
In this section we review reported glucose-1/6-phosphate values for a set of compounds.
# System: P. falciparum 3D7 trophozoites
# Assay Protocol: Metabolomic fingerprint profiling LC-MS
# Assay type: cell-based, Plasmodium falciparum
# Details: metabolite glucose-1/6-phosphate; S2 Table Metabolomics, change in metabolite level after compound treatment
Endpoint: glucose-1/6-phosphate

CCCCCCOC(=O)C1=C(C)NC(=O)NC1c1ccccc1F (stereo not drawn) [MMV007686]: -0.0799
COc1ccc(C(C)=O)cc1N1C(=O)C2C(C1=O)C1(c3ccccc3)C(=O)C2(c2ccccc2)C(c2ccc(C)cc2)=C1c1ccc(C)cc1 (stereo not drawn) [MMV007695]: -0.6568
COc1ccc(-c2nc(NC(=O)CS(=O)(=O)c3ccc(F)cc3)sc2C)cc1 [MMV665915]: -0.6162
O=C(CSc1nccn2nc(-c3ccccc3)cc12)Nc1cc(C(F)(F)F)ccc1Cl [MMV396678]: 0.1714
COc1ccccc1CNC(=O)CCn1c(=O)[nH]c2ccsc2c1=O [MMV019066]: 0.5644
Cc1cc(NCCN2CCCCC2)c2ccc3ccccc3c2n1 [MMV006203]: 0.2347
Cc1cccc(Nc2nc(N)c3ccccc3n2)c1 [MMV019110]: -0.2644
CCOC(=O)C1=C(c2ccccc2)N=c2sc(=Cc3cc(C)n(-c4ccc(F)cc4)c3C)c(=O)n2C1c1cccc(OC)c1OC (stereo not drawn) [MMV666601]: -0.02704
c1ccc(Cn2c(N=Nc3c(Nc4ccccc4)ccc4ccccc34)nc3ccccc32)cc1 [MMV666023]: -0.4138
COc1ccc(NC(=O)C2c3ccccc3C(=O)N(CC(C)C)C2c2cccs2)cc1 (stereo not drawn) [MMV000662]: -1.428
CNCCCNc1ccnc2cc(Cl)ccc12 [MMV020500]: -0.009969
COc1cc(OC)c(N(C)C(=O)c2cc3c(s2)-c2ccccc2S(=O)(=O)C3)cc1Cl [MMV006427]: -0.5462
CN(C)c1ccc(C=Cc2nc(=O)c3ccccc3o2)cc1 [MMV006309]: 0.457
COc1ccc(-n2ccnc2SCC(=O)Nc2cc(C)ccc2C)c(OC)c1 [MMV019258]: 0.221
Cc1ccc(Nc2nc(-c3ccccn3)cs2)cc1 [MMV007907]: -0.0724
Cc1ccc(N2C3c4ccccc4N(S(=O)(=O)c4ccc(C)cc4)C2c2ccccc2N3S(=O)(=O)c2ccc(C)cc2)cc1 [MMV007160]: 0.8192
c1ccc2cc3c(Nc4ccc(N5CCOCC5)cc4)ccnc3cc2c1 [MMV006861]: 0.03738
CCn1c(CN2CCN(Cc3ccccc3)CC2)nc2cc(NC(=O)c3cccs3)ccc21 [MMV020439]: -0.2278
COc1cccc(C=Cc2nc(=O)c3ccccc3o2)c1OC [MMV666693]: 0.5191
CSC1=NC(=Nc2c(C)cccc2C)C2(CCC(C(C)(C)C)CC2)N1c1ccc(Cl)cc1 (stereo not drawn) [MMV666596]: -0.3631
CCOC(=O)c1c(C)n(-c2ccc(Cl)cc2)c2ccc(OC(=O)C=Cc3ccccc3)cc12 [MMV666600]: 0.5114
Cc1cc(C=C2SC(=Nc3ccccc3)N(C3CCCC3)C2=O)c(C)n1-c1ccc(Cl)cc1 [MMV666688]: 0.01665
CCOC(=O)c1c(NC(=O)c2ccccc2)sc2c(O)c(CN(CC)CC)ccc12 [MMV665831]: -0.4706
Cc1cc(Nc2ccc(C)c(Cl)c2)n2nc(C(F)(F)F)nc2n1 [MMV665874]: 0.2173
